system: Escherichia coli TOP10; assay: shrunken log2 fold change of peptide-encoding DNA abundance (4.5 h post-induction vs induction); higher = less antimicrobial activity (less host growth inhibition); details: time post-induction: 4.5 h; library: site-saturation at positions 5, 18, 19, 20

sequence_record	shrunken log2 fold change
RRIRGRPPRLPRPRPRPGEEPRP	0.965
RRIRTRPPRLPRPRPRPPPHPRP	0.907
RRIRWRPPRLPRPRPRPKLHPRP	0.0953

###

test system: Escherichia coli TOP10; test: shrunken log2 fold change of peptide-encoding DNA abundance (4.5 h post-induction vs induction); higher = less antimicrobial activity (less host growth inhibition); conditions: time post-induction: 4.5 h; library: site-saturation at positions 5, 18, 19, 20

sequence_record	shrunken log2 fold change
RRIRYRPPRLPRPRPRPCPWPRP	-0.227
RRIRDRPPRLPRPRPRPQCKPRP	0.0759
RRIRIRPPRLPRPRPRPYIMPRP	-1.15
RRIRNRPPRLPRPRPRPVLFPRP	-0.326
RRIRTRPPRLPRPRPRPFCKPRP	-0.132
RRIRLRPPRLPRPRPRPISWPRP	0.0554
RRIRNRPPRLPRPRPRPNRAPRP	0.0272
RRIRERPPRLPRPRPRPIAQPRP	-0.0491
RRIRSRPPRLPRPRPRPKPEPRP	-0.01
RRIRCRPPRLPRPRPRPQMRPRP	0.611
RRIRVRPPRLPRPRPRPHAGPRP	0.108
RRIRTRPPRLPRPRPRPLRKPRP	0.258

###

system: Escherichia coli TOP10; test: shrunken log2 fold change of peptide-encoding DNA abundance (4.5 h post-induction vs induction); higher = less antimicrobial activity (less host growth inhibition); conditions: time post-induction: 4.5 h; library: site-saturation at positions 5, 18, 19, 20
Listed here: items and their measured shrunken log2 fold change.

sequence_record	shrunken log2 fold change
RRIRPRPPRLPRPRPRPNGSPRP	0.0884
RRIRDRPPRLPRPRPRPTPLPRP	0.484
RRIRIRPPRLPRPRPRPLNKPRP	-0.398
RRIRHRPPRLPRPRPRPQYEPRP	-0.0461
RRIRQRPPRLPRPRPRPNAPPRP	0.105
RRIRVRPPRLPRPRPRPNMIPRP	-0.491
RRIRLRPPRLPRPRPRPRDRPRP	3.43
RRIRYRPPRLPRPRPRPAIFPRP	-0.0382
RRIRTRPPRLPRPRPRPQNEPRP	-0.276
RRIRERPPRLPRPRPRPIVQPRP	-0.311
RRIRIRPPRLPRPRPRPSSLPRP	-0.713
RRIRQRPPRLPRPRPRPMCQPRP	-0.053
RRIRTRPPRLPRPRPRPHRCPRP	-0.0268
RRIRQRPPRLPRPRPRPFRWPRP	-0.0233
RRIRNRPPRLPRPRPRPCSKPRP	-0.0508
RRIRDRPPRLPRPRPRPPQRPRP	0.719
RRIRNRPPRLPRPRPRPPWLPRP	0.482
RRIRHRPPRLPRPRPRPVAVPRP	-0.0993

###

test system: Escherichia coli TOP10; assay: shrunken log2 fold change of peptide-encoding DNA abundance (4.5 h post-induction vs induction); higher = less antimicrobial activity (less host growth inhibition); conditions: time post-induction: 4.5 h; library: site-saturation at positions 5, 18, 19, 20
Listed here: items and their measured shrunken log2 fold change.
measurement_name: shrunken log2 fold change

sequence_record	measurement_name	value_observed
RRIRIRPPRLPRPRPRPALRPRP	shrunken log2 fold change	0.00782
RRIRIRPPRLPRPRPRPWNCPRP	shrunken log2 fold change	-0.000121
RRIRLRPPRLPRPRPRPKSIPRP	shrunken log2 fold change	-0.189
RRIRTRPPRLPRPRPRPMHEPRP	shrunken log2 fold change	-0.0192
RRIRIRPPRLPRPRPRPRFMPRP	shrunken log2 fold change	-0.143
RRIRSRPPRLPRPRPRPLDMPRP	shrunken log2 fold change	0.0557
RRIRIRPPRLPRPRPRPGYDPRP	shrunken log2 fold change	-0.576
RRIRFRPPRLPRPRPRPNDCPRP	shrunken log2 fold change	-0.415
RRIRIRPPRLPRPRPRPMGIPRP	shrunken log2 fold change	0.000142
RRIRLRPPRLPRPRPRPMTYPRP	shrunken log2 fold change	-0.0978
RRIRTRPPRLPRPRPRPFEVPRP	shrunken log2 fold change	-0.101
RRIRSRPPRLPRPRPRPLDHPRP	shrunken log2 fold change	0.0458
RRIRDRPPRLPRPRPRPWWLPRP	shrunken log2 fold change	0.0758
RRIRHRPPRLPRPRPRPCQYPRP	shrunken log2 fold change	0.0163
RRIRARPPRLPRPRPRPDILPRP	shrunken log2 fold change	0.0584
RRIRLRPPRLPRPRPRPCHDPRP	shrunken log2 fold change	-0.116
RRIRRRPPRLPRPRPRPNQCPRP	shrunken log2 fold change	-0.0957
RRIRIRPPRLPRPRPRPFKAPRP	shrunken log2 fold change	-0.431
RRIRYRPPRLPRPRPRPANDPRP	shrunken log2 fold change	-0.0297
RRIRQRPPRLPRPRPRPMPKPRP	shrunken log2 fold change	0.128
RRIRYRPPRLPRPRPRPYLLPRP	shrunken log2 fold change	-1.28
RRIRERPPRLPRPRPRPQNQPRP	shrunken log2 fold change	-0.612
RRIRERPPRLPRPRPRPLTIPRP	shrunken log2 fold change	-0.101
RRIRVRPPRLPRPRPRPDPWPRP	shrunken log2 fold change	0.131
RRIRARPPRLPRPRPRPATDPRP	shrunken log2 fold change	1.53
RRIRERPPRLPRPRPRPPGSPRP	shrunken log2 fold change	-0.0206
RRIRGRPPRLPRPRPRPIVTPRP	shrunken log2 fold change	0.583
RRIRTRPPRLPRPRPRPGIYPRP	shrunken log2 fold change	-0.279
RRIRIRPPRLPRPRPRPLPRPRP	shrunken log2 fold change	0.2
RRIRIRPPRLPRPRPRPWLMPRP	shrunken log2 fold change	-0.202
RRIRMRPPRLPRPRPRPKYWPRP	shrunken log2 fold change	0.164
RRIRMRPPRLPRPRPRPCQNPRP	shrunken log2 fold change	0.0761
RRIRQRPPRLPRPRPRPAYNPRP	shrunken log2 fold change	0.018
RRIRSRPPRLPRPRPRPNILPRP	shrunken log2 fold change	-0.61
RRIRCRPPRLPRPRPRPLWYPRP	shrunken log2 fold change	-0.307
RRIRHRPPRLPRPRPRPNKFPRP	shrunken log2 fold change	-0.284
RRIRLRPPRLPRPRPRPWCKPRP	shrunken log2 fold change	-0.213
RRIRARPPRLPRPRPRPNVLPRP	shrunken log2 fold change	0.00594
RRIRRRPPRLPRPRPRPRFLPRP	shrunken log2 fold change	0.15

###

test system: Escherichia coli TOP10; experiment: shrunken log2 fold change of peptide-encoding DNA abundance (4.5 h post-induction vs induction); higher = less antimicrobial activity (less host growth inhibition); settings: time post-induction: 4.5 h; library: site-saturation at positions 5, 18, 19, 20

sequence_record	shrunken log2 fold change
RRIRMRPPRLPRPRPRPFYTPRP	-0.364
RRIRQRPPRLPRPRPRPMWAPRP	-0.127
RRIRVRPPRLPRPRPRPCYIPRP	-0.281
RRIRFRPPRLPRPRPRPSAAPRP	0.346
RRIRHRPPRLPRPRPRPKHCPRP	-0.447
RRIRKRPPRLPRPRPRPNNYPRP	-0.259
RRIRIRPPRLPRPRPRPQFAPRP	-0.0319
RRIRMRPPRLPRPRPRPWSLPRP	-0.385
RRIRFRPPRLPRPRPRPDFGPRP	0.0422

###

test system: Escherichia coli TOP10; assay: shrunken log2 fold change of peptide-encoding DNA abundance (4.5 h post-induction vs induction); higher = less antimicrobial activity (less host growth inhibition); conditions: time post-induction: 4.5 h; library: site-saturation at positions 5, 18, 19, 20;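 note: peptides expressed intracellularly from a pBAD plasmid library in pooled LB shake-flask culture, induced with 0.3% L-arabinose, DNA abundance read by NGS, three biological replicates, DESeq2 with apeglm shrinkage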

sequence_record	target_entity	shrunken log2 fold change
RRIRGRPPRLPRPRPRPPSDPRP	Escherichia coli TOP10	1.05
RRIRYRPPRLPRPRPRPACMPRP	Escherichia coli TOP10	-0.0495
RRIRMRPPRLPRPRPRPHWKPRP	Escherichia coli TOP10	0.0142
RRIRTRPPRLPRPRPRPVVNPRP	Escherichia coli TOP10	0.0198
RRIRCRPPRLPRPRPRPYFQPRP	Escherichia coli TOP10	-0.846
RRIRARPPRLPRPRPRPTRHPRP	Escherichia coli TOP10	0.615
RRIRDRPPRLPRPRPRPAIVPRP	Escherichia coli TOP10	0.41
RRIRSRPPRLPRPRPRPAALPRP	Escherichia coli TOP10	-0.0411
RRIRDRPPRLPRPRPRPHGHPRP	Escherichia coli TOP10	0.0317
RRIRSRPPRLPRPRPRPFFEPRP	Escherichia coli TOP10	-0.161
RRIRDRPPRLPRPRPRPLYIPRP	Escherichia coli TOP10	-0.266
RRIRFRPPRLPRPRPRPMEKPRP	Escherichia coli TOP10	0.273
RRIRERPPRLPRPRPRPAIKPRP	Escherichia coli TOP10	-0.656
RRIRWRPPRLPRPRPRPQRVPRP	Escherichia coli TOP10	2.3
RRIRIRPPRLPRPRPRPSQSPRP	Escherichia coli TOP10	-0.0979
RRIRMRPPRLPRPRPRPKRHPRP	Escherichia coli TOP10	0.351
RRIRRRPPRLPRPRPRPDVNPRP	Escherichia coli TOP10	0.0369
RRIRMRPPRLPRPRPRPMMMPRP	Escherichia coli TOP10	-0.0717
RRIRMRPPRLPRPRPRPVEKPRP	Escherichia coli TOP10	1.01
RRIRGRPPRLPRPRPRPPAMPRP	Escherichia coli TOP10	1.23
RRIRMRPPRLPRPRPRPYTAPRP	Escherichia coli TOP10	0.147
RRIRCRPPRLPRPRPRPMGQPRP	Escherichia coli TOP10	0.00321
RRIRMRPPRLPRPRPRPCWMPRP	Escherichia coli TOP10	0.114
